From: patent US6620828B2

- target-of-assay: FL-CHK1 (Homo sapiens, UniProt O14757)
- Construct: C-terminally His-tagged full-length human CHK1 (FL-CHK1); 6xHis (C); made in house; host or cells: baculovirus/insect cells
- Sequence (O14757 1-476): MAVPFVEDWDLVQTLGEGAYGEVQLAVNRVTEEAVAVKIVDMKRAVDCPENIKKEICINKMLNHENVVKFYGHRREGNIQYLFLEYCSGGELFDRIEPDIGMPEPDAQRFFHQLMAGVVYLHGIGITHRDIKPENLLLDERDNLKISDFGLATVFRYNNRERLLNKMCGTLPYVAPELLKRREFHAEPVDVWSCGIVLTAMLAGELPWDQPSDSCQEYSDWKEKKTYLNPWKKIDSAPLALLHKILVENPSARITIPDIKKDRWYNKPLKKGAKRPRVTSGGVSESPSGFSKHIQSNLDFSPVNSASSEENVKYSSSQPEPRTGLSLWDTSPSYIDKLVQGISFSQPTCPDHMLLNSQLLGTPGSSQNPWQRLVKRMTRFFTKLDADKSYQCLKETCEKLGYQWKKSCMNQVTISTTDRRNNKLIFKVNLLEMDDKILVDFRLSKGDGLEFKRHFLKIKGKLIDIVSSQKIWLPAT
- assay-remarks: CHK1 assay
- Assay type: biochemical
- test-context: 20 μM; combinatorial library compounds
endpoint-name: inhibition at 20 µM (%)

entry-smiles: Nc1nc(Nc2ccc(S(N)(=O)=O)cc2)sc1-c1nc(-c2ccc3c(c2)OCCO3)cs1
inhibition at 20 µM, %: 20.1
--
entry-smiles: CC(C)c1ccc(Nc2nc(N)c(-c3nc(-c4ccc(O)c(O)c4)cs3)s2)cc1
inhibition at 20 µM, %: 31.6
--
entry-smiles: CCOC(=O)c1ccccc1-c1csc(-c2sc(Nc3ccc(C(C)C)cc3)nc2N)n1
inhibition at 20 µM, %: 26
--
entry-smiles: CCOC(=O)c1cc(-c2csc(-c3sc(Nc4ccc(C(C)C)cc4)nc3N)n2)on1
inhibition at 20 µM, %: -5.7

1 = CC(C)c1ccc(Nc2nc(N)c(-c3nc(-c4c(Cl)c(Cl)nc(Cl)c4Cl)cs3)s2)cc1
2 = Cc1c(-c2csc(-c3sc(Nc4ccc(C(C)C)cc4)nc3N)n2)sc2ccccc12
3 = CN(C)c1ccc(Nc2nc(N)c(-c3nc(-c4ccc5c(c4)CCC(=O)N5)cs3)s2)cc1
4 = CC(C)c1ccc(Nc2nc(N)c(-c3nc(-c4ccc(Cl)c(Cl)c4)cs3)s2)cc1
[Q] Please rank these compounds by inhibition at 20 µM in descending order. Order the labels as requested and give them as your answer.
[A] 3, 1, 4, 2
(3: 32.7%, 1: 19.3%, 4: 0.3%, 2: -4.7%)
